System: corn
Experiment: Test A preemergence
Assay type: in vivo, Zea mays
Conditions: preemergence, 125 g ai/ha, visual injury approx. 10 days after treatment
Assignment: determine reported Corn plant response rating (0 to 100 scale) for the given compounds.

Req: Which measured Corn plant response rating (0 to 100 scale) value corresponds to COCc1cc(C(=O)NC2CC2)nn1Cc1ccnc(C(F)(F)F)c1 ?
Resp: 0

Req: Which measured Corn plant response rating (0 to 100 scale) value corresponds to CCc1cc(C(=O)NC2CC2)nn1Cc1nnc(C(F)(F)F)o1 ?
Resp: 0

Req: Which measured Corn plant response rating (0 to 100 scale) value corresponds to CCNC(=O)c1cc(CC)n(Cc2cc(C(F)(F)F)nn2C)n1 ?
Resp: 0

Req: Which measured Corn plant response rating (0 to 100 scale) value corresponds to O=C(NCC(F)(F)F)c1cc(Br)n(Cc2cccc(C(F)(F)F)c2)n1 ?
Resp: 0

Req: Which measured Corn plant response rating (0 to 100 scale) value corresponds to CCc1cc(C(=O)NCC(F)(F)F)nn1Cc1cc(C(F)(F)C(F)(F)F)nn1C ?
Resp: 0

Req: Which measured Corn plant response rating (0 to 100 scale) value corresponds to CCc1cc(C(=O)NC(C)C)nn1Cc1ccnc(OCC(F)(F)F)c1 ?
Resp: 0

Req: Which measured Corn plant response rating (0 to 100 scale) value corresponds to CCc1cc(C(=O)NCC(F)(F)F)nn1Oc1cccc(C(F)(F)F)c1 [Compound 217] ?
Resp: 0

Req: Which measured Corn plant response rating (0 to 100 scale) value corresponds to O=C(NC1CC1)c1cc(CCCl)n(Cc2ccnc(C(F)(F)F)c2)n1 ?
Resp: 10

Req: Which measured Corn plant response rating (0 to 100 scale) value corresponds to CCCNC(=O)c1cc(OCC)n(Cc2ccnc(C(F)(F)F)c2)n1 ?
Resp: 40

Req: Which measured Corn plant response rating (0 to 100 scale) value corresponds to CCCNC(=O)c1cc(CC)n(Oc2cccc(OC(F)(F)F)c2)n1 ?
Resp: 0

Req: Which measured Corn plant response rating (0 to 100 scale) value corresponds to CCCc1cc(C(=O)NOC(C)C)nn1Cc1cc(C(F)(F)F)nn1C ?
Resp: 20

Req: Which measured Corn plant response rating (0 to 100 scale) value corresponds to CCc1cc(C(=O)NCC(F)(F)F)nn1Oc1cccc(C(F)(F)F)c1 [Compound 218] ?
Resp: 0

Req: Which measured Corn plant response rating (0 to 100 scale) value corresponds to CCCc1cc(C(=O)NC(C)C)nn1Cc1ccnc(C(F)(F)F)c1 ?
Resp: 80

Req: Which measured Corn plant response rating (0 to 100 scale) value corresponds to CCc1cc(C(=O)NCC(F)(F)F)nn1Cc1ccnc(Br)c1 ?
Resp: 30

Req: Which measured Corn plant response rating (0 to 100 scale) value corresponds to O=C(NC1CC1)c1cc(CCF)n(Cc2ccnc(C(F)(F)F)c2)n1 ?
Resp: 10

Req: Which measured Corn plant response rating (0 to 100 scale) value corresponds to CCCNC(=O)c1cc(CC)n(Oc2cccc(C(F)(F)F)c2)n1 ?
Resp: 0
